Here the recorded Solubility is given for each entry.
test: Solubility testing in water, SGF, FaSSIF, FeSSIF at 37° C.; assay type: physicochemical; conditions: SGF (pH of media 1.2), 37° C., 0.5 h
Structures can show the parent of a compound that is named as a salt.
# output: bare number, implied unit mg/mL

Known Solubility results, listed for orientation:
>>> df
                                   molecule   unit  observed_result
0  NCc1ccc(C(=O)Nc2ccncc2F)cc1-c1cccc(C(=O)Nc2ccc(SC[C@H]3CCOC3=O)cc2)c1 [Succinate Form I]  mg/mL            3.837
1  NCc1ccc(C(=O)Nc2ccncc2F)cc1-c1cccc(C(=O)Nc2ccc(SC[C@H]3CCOC3=O)cc2)c1 [HCl salt Form II]  mg/mL            2.550

# evaluate next
Ask | Entry under review: NCc1ccc(C(=O)Nc2ccncc2F)cc1-c1cccc(C(=O)Nc2ccc(SC[C@H]3CCOC3=O)cc2)c1 (stereo in doubt) [HCl salt Form I] . Reported Solubility?
Reply | 0.780

----------
target: PKCepsilon (Homo sapiens, UniProt Q02156); assay: Kinase panel 33P-ATP filter assay, PKCepsilon; format: biochemical; conditions: HCl salt tested; ATP Conc. 10 μM (Km); read-out: Compound IC50 (nM) PKCepsilon
Sequence (Q02156 whole entry): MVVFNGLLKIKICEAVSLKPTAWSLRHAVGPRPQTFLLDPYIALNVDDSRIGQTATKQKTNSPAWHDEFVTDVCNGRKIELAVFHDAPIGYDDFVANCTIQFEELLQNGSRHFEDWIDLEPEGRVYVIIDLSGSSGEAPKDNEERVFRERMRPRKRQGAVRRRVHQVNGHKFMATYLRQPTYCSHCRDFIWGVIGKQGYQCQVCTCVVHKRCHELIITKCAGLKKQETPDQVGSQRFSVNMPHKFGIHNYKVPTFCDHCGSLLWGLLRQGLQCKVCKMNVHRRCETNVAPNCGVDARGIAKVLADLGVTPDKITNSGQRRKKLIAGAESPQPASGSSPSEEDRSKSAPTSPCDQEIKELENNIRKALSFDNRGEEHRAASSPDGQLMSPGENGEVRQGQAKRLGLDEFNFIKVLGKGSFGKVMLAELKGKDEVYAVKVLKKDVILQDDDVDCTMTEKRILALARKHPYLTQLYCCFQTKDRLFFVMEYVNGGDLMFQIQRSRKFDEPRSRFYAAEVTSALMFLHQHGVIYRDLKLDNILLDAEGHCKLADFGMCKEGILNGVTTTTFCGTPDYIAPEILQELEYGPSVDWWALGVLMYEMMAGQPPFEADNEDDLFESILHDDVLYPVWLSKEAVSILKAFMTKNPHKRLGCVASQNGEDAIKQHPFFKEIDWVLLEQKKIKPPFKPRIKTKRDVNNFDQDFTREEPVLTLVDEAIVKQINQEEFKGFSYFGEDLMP
value.kind: IC50 (nM)
# output: bare number, implied unit nM

>>> df
                                   molecule  value_kind  observed_result
0  NCc1ccc(C(=O)Nc2ccncc2F)cc1-c1cccc(C(=O)Nc2ccc(SC[C@@H]3CCOC3=O)cc2)c1 [R-enantiomer]        IC50              2.9

Ask | Entry under review: NCc1ccc(C(=O)Nc2ccncc2F)cc1-c1cccc(C(=O)Nc2ccc(SC[C@H]3CCOC3=O)cc2)c1 [S-enantiomer] . Reported IC50?
Reply | 6.7

----------
Here the recorded pH is given for each entry.
test: Solubility testing in water, SGF, FaSSIF, FeSSIF at 37° C.; format: physicochemical; conditions: pH of sample in FaSSIF (pH of media 6.5), 2 h
Counter-ions that a name gives are not always drawn.
Lab note: jot the number down without any unit.

                                   compound  observed_result
0  NCc1ccc(C(=O)Nc2ccncc2F)cc1-c1cccc(C(=O)Nc2ccc(SC[C@H]3CCOC3=O)cc2)c1 [HCl salt Form II]              6.4

Ask | Entry under review: NCc1ccc(C(=O)Nc2ccncc2F)cc1-c1cccc(C(=O)Nc2ccc(SC[C@H]3CCOC3=O)cc2)c1 [Succinate Form I] . Reported pH?
Reply | 5.7

Ask | Entry under review: NCc1ccc(C(=O)Nc2ccncc2F)cc1-c1cccc(C(=O)Nc2ccc(SC[C@H]3CCOC3=O)cc2)c1 (stereo in doubt) [HCl salt Form I] . Reported pH?
Reply | 6.4

Ask | Entry under review: NCc1ccc(C(=O)Nc2ccncc2F)cc1-c1cccc(C(=O)Nc2ccc(SC[C@H]3CCOC3=O)cc2)c1 [Freebase Form I] . Reported pH?
Reply | 6.4

----------
Here the recorded IC50 is given for each entry.
biological target: PKCeta (Homo sapiens, UniProt P24723); assay: Kinase panel 33P-ATP filter assay, PKCeta; assay type: biochemical; details: HCl salt tested; ATP Conc. 15 μM (Km); read-out: Compound IC50 (nM) PKCeta
Sequence (P24723 whole entry): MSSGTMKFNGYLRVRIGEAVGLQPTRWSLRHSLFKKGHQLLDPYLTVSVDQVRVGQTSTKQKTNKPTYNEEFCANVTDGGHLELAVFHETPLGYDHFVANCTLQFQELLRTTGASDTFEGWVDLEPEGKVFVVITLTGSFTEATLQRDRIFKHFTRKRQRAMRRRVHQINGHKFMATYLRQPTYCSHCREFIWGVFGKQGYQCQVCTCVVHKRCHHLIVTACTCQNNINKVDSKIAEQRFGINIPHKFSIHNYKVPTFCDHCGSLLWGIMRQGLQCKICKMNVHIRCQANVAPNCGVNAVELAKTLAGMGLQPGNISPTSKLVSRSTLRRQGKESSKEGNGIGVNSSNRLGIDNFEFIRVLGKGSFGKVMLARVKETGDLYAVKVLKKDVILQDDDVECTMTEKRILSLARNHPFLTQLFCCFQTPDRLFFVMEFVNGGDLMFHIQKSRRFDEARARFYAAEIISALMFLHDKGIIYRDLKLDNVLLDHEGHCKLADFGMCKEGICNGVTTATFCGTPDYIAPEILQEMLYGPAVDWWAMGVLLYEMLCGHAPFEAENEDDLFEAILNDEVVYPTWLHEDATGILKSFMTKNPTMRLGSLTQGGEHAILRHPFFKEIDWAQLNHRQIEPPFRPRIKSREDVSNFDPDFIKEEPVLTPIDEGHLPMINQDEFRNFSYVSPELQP

                                   compound  observed_result
0  NCc1ccc(C(=O)Nc2ccncc2F)cc1-c1cccc(C(=O)Nc2ccc(SC[C@H]3CCOC3=O)cc2)c1 [S-enantiomer]           0.9 nM

Ask | Entry under review: NCc1ccc(C(=O)Nc2ccncc2F)cc1-c1cccc(C(=O)Nc2ccc(SC[C@@H]3CCOC3=O)cc2)c1 [R-enantiomer] . Reported IC50?
Reply | < 0.5 nM

From: patent US20260078108A1
